subject.of.test: phosphorylated MET (pMET) (Homo sapiens, UniProt P08581)
Sequence (P08581 25-1390): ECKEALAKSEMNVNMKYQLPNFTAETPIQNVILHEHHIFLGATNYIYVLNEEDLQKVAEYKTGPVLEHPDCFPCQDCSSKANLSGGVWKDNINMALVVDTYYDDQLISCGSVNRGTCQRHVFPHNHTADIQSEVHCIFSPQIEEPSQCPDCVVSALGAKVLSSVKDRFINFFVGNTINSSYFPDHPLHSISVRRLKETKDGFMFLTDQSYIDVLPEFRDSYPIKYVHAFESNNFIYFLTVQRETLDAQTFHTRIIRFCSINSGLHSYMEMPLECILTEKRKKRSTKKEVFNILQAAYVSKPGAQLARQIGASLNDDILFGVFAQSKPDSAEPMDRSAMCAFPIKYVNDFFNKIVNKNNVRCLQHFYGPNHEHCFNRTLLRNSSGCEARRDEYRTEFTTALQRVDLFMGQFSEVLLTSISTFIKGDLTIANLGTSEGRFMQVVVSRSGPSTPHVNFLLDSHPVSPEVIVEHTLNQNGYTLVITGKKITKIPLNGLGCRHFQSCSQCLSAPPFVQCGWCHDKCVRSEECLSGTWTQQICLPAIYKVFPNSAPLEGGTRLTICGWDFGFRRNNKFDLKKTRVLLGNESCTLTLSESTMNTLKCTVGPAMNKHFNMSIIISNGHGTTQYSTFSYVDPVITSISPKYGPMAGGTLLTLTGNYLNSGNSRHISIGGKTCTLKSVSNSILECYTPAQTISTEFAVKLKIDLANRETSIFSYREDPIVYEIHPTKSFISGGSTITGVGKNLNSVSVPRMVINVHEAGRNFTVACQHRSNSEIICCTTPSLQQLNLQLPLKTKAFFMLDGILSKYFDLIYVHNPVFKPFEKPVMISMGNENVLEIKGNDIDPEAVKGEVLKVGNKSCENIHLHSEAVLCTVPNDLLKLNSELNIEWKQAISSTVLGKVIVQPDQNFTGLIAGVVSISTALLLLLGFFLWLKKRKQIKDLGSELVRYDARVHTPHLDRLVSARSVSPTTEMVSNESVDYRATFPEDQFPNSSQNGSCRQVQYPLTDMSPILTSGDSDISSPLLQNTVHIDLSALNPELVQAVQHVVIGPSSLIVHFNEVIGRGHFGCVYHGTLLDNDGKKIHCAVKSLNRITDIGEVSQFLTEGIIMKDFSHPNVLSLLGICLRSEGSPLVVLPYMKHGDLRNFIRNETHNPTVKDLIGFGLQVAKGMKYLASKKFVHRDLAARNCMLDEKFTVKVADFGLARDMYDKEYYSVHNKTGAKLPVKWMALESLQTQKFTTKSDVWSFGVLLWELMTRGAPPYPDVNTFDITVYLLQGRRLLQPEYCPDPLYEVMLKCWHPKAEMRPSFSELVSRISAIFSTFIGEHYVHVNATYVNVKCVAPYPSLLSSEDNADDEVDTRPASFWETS
method.description: pMET inhibition in LG1208 tumors
endpoint.label: EC50 (nM)

> print(dat)
                         compound.structure  endpoint.label  readout.units  recorded.number
1  C[C@@H](c1ccc2nccn2c1)n1nnc2ncc(-c3cnn(C)c3)nc21            EC50             nM              1.3

###

method.description: plasma PK and mouse population PK model in NSG mice with ABT
Assay type: in vivo
condition: NOD/SCID gamma (NSG), mouse, plasma, oral, 15 mg/kg
endpoint.label: half-life (h)

> print(dat)
                         compound.structure  recorded.number
1  C[C@@H](c1ccc2nccn2c1)n1nnc2ncc(-c3cnn(C)c3)nc21              2.5

###

method.description: plasma PK and mouse population PK model in NSG mice with ABT
Assay type: in vivo
condition: NOD/SCID gamma (NSG), mouse, plasma, oral
endpoint.label: clearance (mL/min/kg)

> print(dat)
                         compound.structure  readout.units  recorded.number
1  C[C@@H](c1ccc2nccn2c1)n1nnc2ncc(-c3cnn(C)c3)nc21      mL/min/kg             7.17

Cited source for all entries: paper PMC10157363
